Target: EGFR L858R/T790M (Homo sapiens (Human), UniProt P00533, L858R/T790M)
Sequence (P00533 25-1210 T790M/L858R): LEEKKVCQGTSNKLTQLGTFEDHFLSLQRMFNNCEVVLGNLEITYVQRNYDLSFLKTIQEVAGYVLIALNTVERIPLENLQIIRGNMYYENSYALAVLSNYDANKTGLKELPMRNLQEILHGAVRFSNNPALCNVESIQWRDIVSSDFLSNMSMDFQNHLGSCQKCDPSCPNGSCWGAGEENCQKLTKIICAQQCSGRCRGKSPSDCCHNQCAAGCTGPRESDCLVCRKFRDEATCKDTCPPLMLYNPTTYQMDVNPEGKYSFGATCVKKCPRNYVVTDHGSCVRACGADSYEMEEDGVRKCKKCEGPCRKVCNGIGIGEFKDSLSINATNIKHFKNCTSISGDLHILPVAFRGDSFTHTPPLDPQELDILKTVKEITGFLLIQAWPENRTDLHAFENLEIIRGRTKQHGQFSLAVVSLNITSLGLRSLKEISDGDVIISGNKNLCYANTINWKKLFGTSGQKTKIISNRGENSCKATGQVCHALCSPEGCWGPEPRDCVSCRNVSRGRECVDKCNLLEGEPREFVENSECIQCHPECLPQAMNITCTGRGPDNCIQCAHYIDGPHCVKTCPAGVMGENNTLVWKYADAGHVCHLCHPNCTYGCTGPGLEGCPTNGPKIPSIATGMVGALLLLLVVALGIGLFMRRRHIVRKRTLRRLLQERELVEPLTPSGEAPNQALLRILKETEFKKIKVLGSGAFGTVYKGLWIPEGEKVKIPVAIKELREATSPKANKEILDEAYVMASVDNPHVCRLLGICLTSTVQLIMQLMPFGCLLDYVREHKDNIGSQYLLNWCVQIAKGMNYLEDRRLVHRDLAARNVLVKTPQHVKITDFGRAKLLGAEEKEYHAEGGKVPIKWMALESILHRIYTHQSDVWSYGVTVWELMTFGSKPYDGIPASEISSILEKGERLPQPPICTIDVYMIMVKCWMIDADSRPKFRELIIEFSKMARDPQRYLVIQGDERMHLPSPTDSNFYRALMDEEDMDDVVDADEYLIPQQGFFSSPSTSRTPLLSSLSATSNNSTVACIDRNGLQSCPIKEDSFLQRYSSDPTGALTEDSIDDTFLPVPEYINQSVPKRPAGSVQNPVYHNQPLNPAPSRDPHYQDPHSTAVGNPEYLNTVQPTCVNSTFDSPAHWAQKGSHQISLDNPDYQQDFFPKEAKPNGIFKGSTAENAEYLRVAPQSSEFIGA
Test: HTRF-based EGFR biochemical assay (L858R/T790M)
Conditions: 100 μM ATP, enzyme 0.02 nM
Experimental: Example 25: HTRF-Based EGFR Biochemical Assays EGFR biochemical activity measurements were carried out using the homogeneous time-resolved fluorescence (HTRF) assay (Cisbio), inhibitors and DMSO normalizations were first dispensed to empty black low-volume 384-well plates (Corning) with 0300 digital liquid dispenser (HP). All reactions were carried out at room temperature and solutions were added to plates with a Multidrop Combi Reagent Dispenser (ThermoFisher). […]
Where a name gives a salt, the structure may show the parent alone.
observed.property: IC50 (nM)
Report only the number, with the unit nM understood.

Here are 3 compounds together with their reported answers.
CN1CCC(c2ccc(-c3cc(F)c4cn(C(c5nc6ccccc6[nH]5)c5cc(F)ccc5O)nc4c3)cc2)CC1 (stereo not drawn) [Compound 119, trifluoroacetate] | 3
CN1CCC(c2ccc(-c3ccc4c(c3)C(=O)N(C(c3nc5ccccc5[nH]3)c3cc(F)ccc3O)C4)cc2F)CC1 (stereo not drawn) [Compound 017, hydrochloride] | 0.4
Cc1c[nH]c([C@H](c2cc(F)ccc2O)N2Cc3ccc(-c4ccc(C5CCN(C)CC5)cc4)c(F)c3C2=O)n1 (single isomer, unassigned) | 59

// CN1CCC(c2ccc(-c3cc(F)c4c(=O)n(C(c5nc6ccccc6[nH]5)c5cc(F)ccc5O)ccc4c3)cc2)CC1 (stereo not drawn) : IC50 value = 1

// CN1CCC(c2ccc(-c3ccc4c(c3)C(=O)N(C(c3nc5c(Cl)cccc5[nH]3)c3cc(F)ccc3O)C4)cc2)CC1 (stereo not drawn) : IC50 value = 2

// [2H]C1([2H])c2ccc(-c3ccc(C4CCN(C)CC4)cc3)cc2C(=O)N1C([2H])(c1nc2ccccc2[nH]1)c1cc(F)ccc1O (stereo not drawn) : IC50 value = 0.5

----------
// values below are reported pIC50
target: EGFR L858R/T790M (Homo sapiens (Human), UniProt P00533, L858R/T790M); assay: HTRF-based EGFR biochemical assay (L858R/T790M); settings: 100 μM ATP, enzyme 0.02 nM
Structures can show the parent of a compound that is named as a salt.
As a rule, pIC50 stands for the negative log10 of the concentration, concentration in M.

CN1CCC(c2ccc(-c3ccc4ncn(C(c5nc6ccccc6[nH]5)c5cc(F)ccc5O)c(=O)c4c3Cl)cc2)CC1 (stereo not drawn) [Compound 075, dihydrochloride] | 9.15

// Cc1c[nH]c([C@H](c2cc(F)ccc2O)N2Cc3ccc(-c4ccc(C5CCN(C)CC5)cc4)cc3C2=O)n1 (single isomer, unassigned) [Compound 105] : pIC50 value = 7.31

// CN1CCC(c2ccc(-c3ccc4c(c3)C(=O)N(C(c3nc5nccnc5[nH]3)c3cc(F)ccc3O)C4)cc2)CC1 (stereo not drawn) [Compound 019, hydrochloride] : pIC50 value = 9.00

// CN1CCC(c2ccc(-c3ccc4c(c3F)C(=O)N(C(c3nc5ccccc5[nH]3)c3cc(F)ccc3O)C4)cc2F)CC1 (stereo not drawn) [Compound 080, dihydrochloride] : pIC50 value = 9.22

// CN1CCC(c2ccc(-c3ccc4c(c3F)C(=O)N(C(c3nc5c(F)cccc5[nH]3)c3cc(F)ccc3O)C4)cc2F)CC1 (stereo not drawn) [Compound 081, dihydrochloride] : pIC50 value = 9.10

// CN(C)CCN(C)c1ccc(-c2ccc3c(c2)C(=O)N(C(c2nc4ccccc4[nH]2)c2cc(F)ccc2O)C3)cc1 (stereo not drawn) [Compound 041, hydrochloride] : pIC50 value = 8.70
